- Test system: MALME-3M melanoma
- Method description: NCI-60 one-dose screen, 48 h
- Applied conditions: 10 µM unless noted
About 83,000 compounds went through this panel and 20% of them were active in at least one assay; those are over-represented in the sample as a whole. Calls of active or inactive are those of the source. The calls were made as follows: active = growth percent below 10; inactive = the rest.
Possible outcomes: active, inactive

| Compound | Discrete label |
| --- | --- |
| N#Cc1c(NC(=O)c2ccco2)[n+]([O-])c2cc(Cl)c(Cl)cc2[n+]1[O-] | inactive |
| Nc1nc2c(nnn2Cc2ccc(Cl)c(Cl)c2)c(=O)[nH]1 | inactive |
| COc1ccc(C(=O)/C=C/c2cccc(Nc3ccnc4cc(Cl)ccc34)c2)cc1 | inactive |
| O=C(Nc1nc2c(C(F)(F)F)cccc2s1)c1cc(Cl)ccc1O | active |
| CC1CN(C2CCCCC2)C(=O)NC1=O (centres undefined) | inactive |
| O=C(CC(C(=O)c1ccccc1)N1CCN(Cc2ccccc2)CC1)c1ccccc1 (centres undefined) | inactive |
| COc1cc(/C=C\C(C)=N\Nc2ccccc2)ccc1O | inactive |
| CCOC(=O)c1cc2oc(/C=C/c3cc(=O)c4cc(Cl)ccc4o3)cc2[nH]1 | active |
| CCCCN=C(N)c1ccc(OCCSCCOc2ccc(C(N)=NCCCC)cc2)cc1 | inactive |
| CCN(CC)CCCCCCCNc1c2ccc(Cl)cc2nc2ccc(OC)cc12 | active |
| COc1ccc(C2CC(c3ccc(Nc4ccnc5cc(Cl)ccc45)cc3)=NN2C(C)=O)cc1 (centres undefined) | inactive |
| [N-]=[N+]=NCc1ncc(-c2ccc(C(F)(F)F)cc2)c(NC2CCCCCC2)n1 | inactive |
| COc1ccc(-c2cnc(SCC(=O)Nc3ccc(-c4nc5ccccc5s4)cc3)n2-c2ccc(OC)cc2)cc1 | inactive |
| CCOc1cc(CCNS(=O)(=O)c2ccc(C)cc2)c(C(C)=O)cc1OCC | inactive |
| COc1ccc2cc(-c3nc4ccccc4[nH]3)c(=O)oc2c1 | inactive |
| O=c1ncc(-c2ccc(C(F)(F)F)cc2)c(NC2CCCCCC2)[nH]1 | active |
| N#Cc1c(-c2ccccc2)cc(-c2ccccc2)n(CC(=O)O)c1=O | inactive |
| O=C(N/N=C/c1cccc([N+](=O)[O-])c1)c1ccc(Br)o1 | inactive |
| O=C(/C=C/c1c(-c2ccccc2)[nH]c2ccccc12)S(=O)(=O)c1ccccc1 | inactive |
| O=C(Nc1ccc2c(c1)C(=O)c1ccccc1-2)c1ccccc1 | inactive |
| Cc1nn(-c2nc3ccccc3s2)c(C)c1Oc1ccccc1O | inactive |
| COc1ccc(CCN2C(=O)CCC3=C2CCCC3=O)cc1OC | inactive |
| COC(=O)[C@H](Cc1cn(C)cn1)NC(=O)[C@H](Cc1ccccc1)NC(=O)Nc1cc(C(F)(F)F)cc(C(F)(F)F)c1 | active |
| C/C=C(/C(=C/C)c1ccc(O)cc1)c1ccc(O)cc1 | inactive |
| CC(=O)N1N=C(c2ccc(Nc3nc(NCCO)nc(NCCO)n3)cc2)CC1c1ccc(Cl)cc1 (centres undefined) | inactive |
| CSc1nc(Nc2ccc(S(=O)(=O)Nc3ccon3)cc2)c(C#N)c(-c2ccc(Cl)cc2)n1 | inactive |
| O=C1c2cc3c(cc2-c2c1c1ccc(Cl)cc1c(=O)n2CCCNCCO)OCO3 | active |
| CC(=O)N1N=C(c2ccc(Nc3ccnc4cc(Cl)ccc34)cc2)CC1c1ccc(Cl)cc1 (centres undefined) | inactive |
| NS(=O)(=O)c1ccc(N2CC(c3nc4ccccc4[nH]3)CC2=O)cc1 (centres undefined) | inactive |
| COc1cccc(N2CCN(CC(=O)N3CCN(c4nnc(-c5ccc(Cl)cc5)c(-c5ccc(Cl)cc5)n4)CC3)CC2)c1 | inactive |
| Nc1c(C(=O)Nc2cccc(Cl)c2)sc2nc3c(cc12)C(O)CCC3 (centres undefined) | inactive |
| O=C(CSc1nnc(-c2cc(-c3ccccc3)nc3ccccc23)o1)c1ccc(Br)cc1 | inactive |
| O=C(/C=C/c1ccc(C(F)(F)F)cc1)c1ccc(Nc2nc(NCCO)nc(NCCO)n2)cc1 | inactive |
| O=C1CNc2cc(Cl)ccc2N1 | inactive |

From: PubChem BioAssay (NCI)
